# key: entry, value: IC50, CGRP-induced cAMP production, SK-N-MC cells
Molecular target: T1, human alpha CGRP (SEQ ID NO: 80) (human, not fully specified)
T1 peptide: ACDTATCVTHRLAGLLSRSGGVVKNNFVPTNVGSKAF
Assay: cell-based or functional assay
Number in pM, nothing else.

input: Report IC50, CGRP-induced cAMP production, SK-N-MC cells for lipocalin mutein SEQ ID NO: 26 (designed binder, biotinylated by NHS chemistry for capture in SPR) QDSTSDLIPAPPLSKVPLQQNFQDNQFHGKWYVVGWAGNTLLREDKDPIKMQAKIYELKEDRSYNVTWVYFADKKCRYHIETFVPGSQPGEFTLGTIKSHPGETPILVRVVSTNYNQHAMVFFKGVNQNREIFEIILYGRTKELTNELKENFIRFSKSLGLPENHIVFPVPIDQCIDGSAWSHPQFEK please.
output: 160

input: Report IC50, CGRP-induced cAMP production, SK-N-MC cells for lipocalin mutein SEQ ID NO: 25 (designed binder, biotinylated by NHS chemistry for capture in SPR) QDSTSDLIPAPPLSKVPLQQNFQDNQFHGKWYVVGWAGNTLLREDKDPIKMQAKIYELKEDRSYNVTWVYFADKKCNYHIETFVPGSQPGEFTLGTIKSYPGETPILVRVVSTNYNQHAMVFFKGVNQNREIFEIILYGRTKELTNELKENFIRFSKSLGLPENHIVFPVPIDQCIDGSAWSHPQFEK please.
output: 150

input: Report IC50, CGRP-induced cAMP production, SK-N-MC cells for lipocalin mutein SEQ ID NO: 17 (designed binder, biotinylated by NHS chemistry for capture in SPR) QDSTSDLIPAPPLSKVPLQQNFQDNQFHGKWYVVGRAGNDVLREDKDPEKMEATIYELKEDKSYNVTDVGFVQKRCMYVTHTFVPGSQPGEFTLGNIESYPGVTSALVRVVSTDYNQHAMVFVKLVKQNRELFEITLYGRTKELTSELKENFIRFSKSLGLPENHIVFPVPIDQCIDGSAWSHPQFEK please.
output: 110

Where do these numbers come from? They come from patent US20190338002A1.
